Molecular target: RAD54 (Homo sapiens)
Sequence (Q92698 1-747): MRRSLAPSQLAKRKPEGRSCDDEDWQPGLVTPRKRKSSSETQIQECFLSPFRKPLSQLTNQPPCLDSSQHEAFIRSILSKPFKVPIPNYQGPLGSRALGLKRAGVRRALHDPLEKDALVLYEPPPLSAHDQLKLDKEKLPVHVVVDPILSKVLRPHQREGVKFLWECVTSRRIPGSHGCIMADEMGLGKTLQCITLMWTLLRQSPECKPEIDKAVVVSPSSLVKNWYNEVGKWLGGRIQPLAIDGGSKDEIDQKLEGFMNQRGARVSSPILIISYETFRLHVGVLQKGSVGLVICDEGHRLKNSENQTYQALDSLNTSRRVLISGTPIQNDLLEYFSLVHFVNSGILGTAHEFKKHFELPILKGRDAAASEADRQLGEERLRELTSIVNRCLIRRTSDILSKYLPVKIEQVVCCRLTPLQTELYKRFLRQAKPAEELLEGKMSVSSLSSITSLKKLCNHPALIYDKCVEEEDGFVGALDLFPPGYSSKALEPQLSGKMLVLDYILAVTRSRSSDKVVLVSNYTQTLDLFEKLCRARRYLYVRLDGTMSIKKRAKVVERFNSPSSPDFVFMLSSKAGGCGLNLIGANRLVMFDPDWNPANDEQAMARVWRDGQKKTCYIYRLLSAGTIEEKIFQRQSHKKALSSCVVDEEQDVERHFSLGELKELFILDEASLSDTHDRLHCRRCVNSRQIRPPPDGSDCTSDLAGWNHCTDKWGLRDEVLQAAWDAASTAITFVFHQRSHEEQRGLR
quantity name: pKd
Answers are plain numbers, as −log10 of the molar value.

Entry CC(=O)Nc1nnc(S(N)(=O)=O)s1 [C3, acetazolamide] ; pKd = 4.25
